- Tested on: AncSZ;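 also: 11-residue human phosphosite peptides and single-mutation variants displayed on the E. coli surface, counted by deep sequencing, each peptide's frequency after selection divided by its frequency in the unselected input library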;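 also: frequency after pTyr selection over input frequency; kinase dosed for 20-30% of maximal phosphorylation in three min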
- Experiment Notes: phosphorylation enrichment, bacterial display (enrichment ratio); higher = better substrate or ligand; peptides without Tyr show the background
phosphorylation enrichment below 0.8 gives false; phosphorylation enrichment at or above it gives true.

These recorded examples may help you get a feel for the data.
> print(dat)
                      biosequence  assigned.label
1          NPPGMYPVTGP [LPP_Y346]           false
2         PLKALYLQQRP [ATM_Y2969]            true
3  TQKLAYVELQQ [CENPF_Y700_M701V]            true
4  IENKPYGMSDP [RET_Y1062_L1061P]           false

Does GKGGSYSKAEW [HLA-E_Y341] have a reported phosphorylation enrichment of at least 0.8?
false

Does AGTIPYHAHLD [ASS1_Y291_L290P] have a reported phosphorylation enrichment of at least 0.8?
false

Does IGMIIYFARKA [VCAM1_Y718] have a reported phosphorylation enrichment of at least 0.8?
true

Does PEADKYCLTYA [FGG_Y300_R301C] have a reported phosphorylation enrichment of at least 0.8?
true

Does MSNVPYVMNRG [ACAT1_Y161] have a reported phosphorylation enrichment of at least 0.8?
false

Does MTYVFYRENLR [NLRP14_Y443] have a reported phosphorylation enrichment of at least 0.8?
true
